- Assay Protocol: Oral bioavailability in Sprague-Dawley rat at 10 mg/kg measured upto 24 hrs LC-MS/MS analysis
- Format: ADME, organism-based
- Condition Info: Sprague-Dawley, in vivo
Result Type: bioavailability (%)
Numbers only, in %.

Problem: Any idea what bioavailability was measured for `Cc1nc(-c2ccc(CSSC(C)(C)C)cc2)ncc1C(=O)N[C@@H](CCN)C(=O)N(C)[C@@H]1C(=O)N[C@@H](C)C(=O)N[C@H](C(=O)NCC#N)Cc2ccc(OCCN)c(c2)-c2cc1ccc2OCCN` ?
Result: 0.05

----------
- Tested on: Pseudomonas aeruginosa
- Assay Protocol: Antibacterial activity against Pseudomonas aeruginosa 19-5 assessed as inhibition of bacterial growth measured after 18 to 20 hrs by broth microdilution method
- Format: functional
- Condition Info: time 18-20 hrs
Result Type: MIC

Here are 3 molecules together with their reported answers.
[
  {
    "Item Smiles": "CSSCc1ccc(-c2ncc(C(=O)N[C@@H](CCN)C(=O)N(C)[C@@H]3C(=O)N[C@@H](C)C(=O)N[C@H](C(=O)NCC#N)Cc4ccc(OCCN)c(c4)-c4cc3ccc4OCCN)c(C)n2)cc1.O=C(O)C(F)(F)F.O=C(O)C(F)(F)F.O=C(O)C(F)(F)F.O=C(O)C(F)(F)F",
    "MIC": "64 µg/mL"
  },
  {
    "Item Smiles": "Cc1nc(C2CCC3(CC2)CC3)ncc1C(=O)N[C@@H](CCN)C(=O)N(C)[C@@H]1C(=O)N[C@@H](C)C(=O)N[C@H](C(=O)NCC#N)Cc2ccc(OCCN)c(c2)-c2cc1ccc2OCCN.O=C(O)C(F)(F)F.O=C(O)C(F)(F)F.O=C(O)C(F)(F)F.O=C(O)C(F)(F)F",
    "MIC": "> 64 µg/mL"
  },
  {
    "Item Smiles": "Cc1nc(-c2ccc(C(C)(C)C)cc2)ncc1C(=O)C(=O)N[C@@H](CCN)C(=O)N(C)[C@@H]1C(=O)N[C@@H](C)C(=O)N[C@H](C(=O)NCC#N)Cc2ccc(OCCN)c(c2)-c2cc1ccc2OCCN.O=C(O)C(F)(F)F.O=C(O)C(F)(F)F.O=C(O)C(F)(F)F.O=C(O)C(F)(F)F",
    "MIC": "64 µg/mL"
  }
]

Okay, now this molecule:
Problem: // lookup MIC | system=Pseudomonas aeruginosa | key= `Cc1nc(-c2ccc(CSSCCC(F)(F)F)cc2)ncc1C(=O)N[C@@H](CCN)C(=O)N(C)[C@@H]1C(=O)N[C@@H](C)C(=O)N[C@H](C(=O)NCC#N)Cc2ccc(OCCN)c(c2)-c2cc1ccc2OCCN.O=C(O)C(F)(F)F.O=C(O)C(F)(F)F.O=C(O)C(F)(F)F.O=C(O)C(F)(F)F`
Result: 8 µg/mL

----------
- Tested on: Klebsiella pneumoniae
- Assay Protocol: Antibacterial activity against Klebsiella pneumoniae 15-5 assessed as inhibition of bacterial growth measured after 18 to 20 hrs by broth microdilution method
- Assay type: functional
- Condition Info: time 18-20 hrs
Result Type: MIC (µg/mL)
One number for each entry, in µg/mL.

Problem: Any idea what MIC was measured for `CCSSCc1ccc(-c2ncc(C(=O)N[C@@H](CCN)C(=O)N(C)[C@@H]3C(=O)N[C@@H](C)C(=O)N[C@H](C(=O)NCC#N)Cc4ccc(OCCN)c(c4)-c4cc3ccc4OCCN)c(C)n2)cc1.O=C(O)C(F)(F)F.O=C(O)C(F)(F)F.O=C(O)C(F)(F)F.O=C(O)C(F)(F)F` ?
Result: 0.125
